Cited source: PubChem BioAssay (NCI)

In this section we review reported TGI values for a set of molecules.
# Tested on: NCI-H460 lung
# PROCEDURE_SUMMARY: NCI tumour cell line growth inhibition, 48 h
METRIC_NAME: TGI

- MOLECULE: "COc1ccc(C2=C(c3cn(C)c4ccccc34)C(=O)NC2=O)cc1"
  REPORTED_VALUE: "> 25 µM"
- MOLECULE: "C=C(C)/C=C/C(O)[C@](C)(O)[C@H]1[C@H](O)C[C@@]2(C)[C@@H]3CCc4c(cc(OC5OC(CO)C(O)C(O)C5O)c(O)c4C)C3(C)C(=O)C[C@]12C (some centres undefined)"
  REPORTED_VALUE: "> 100 µM"
- MOLECULE: "COc1cc(/C=N/N=C(\\N)NO)cc(Cl)c1O"
  REPORTED_VALUE: "> 100 µM"
- MOLECULE: "CC(=O)Nc1ccc(-c2csc(Nc3ccc(-c4csc(-c5ccccc5)n4)cc3)n2)cc1"
  REPORTED_VALUE: "> 50 µM"
- MOLECULE: "CC1=C(C(=O)CC(=O)C(=O)Nc2cccc(Cl)c2C)Sc2ccccc2N1"
  REPORTED_VALUE: "> 100 µM"
- MOLECULE: "Cc1cccc(NC(=O)c2sc3nc4c(cc3c2N)CCCC4)c1"
  REPORTED_VALUE: "> 100 µM"
- MOLECULE: "CCOC1=CP(=O)(OCC)CC(C)=C1Cl (centres undefined)"
  REPORTED_VALUE: "> 100 µM"
- MOLECULE: "CN(C)CCNC(=O)c1ccc(Cl)c2c(Nc3ccc(S(=O)(=O)N=C(N)N)cc3)c3ccccc3nc12"
  REPORTED_VALUE: "10.2 µM"
- MOLECULE: "COc1cc2c3c(n(CCCN=[N+]=[N-])c(=O)c2cc1OC)-c1ccc(C#N)cc1C3=O"
  REPORTED_VALUE: "> 100 µM"

###

# Tested on: SF-295 CNS
# PROCEDURE_SUMMARY: NCI tumour cell line growth inhibition, 48 h
METRIC_NAME: GI50

- COMPOUND: "O=C([O-])c1ccc2c(c1)-c1nc-2nc2[n-]c(nc3nc(nc4[n-]c(n1)c1ccc(C(=O)[O-])cc41)-c1ccc(C(=O)[O-])cc1-3)c1ccc(C(=O)[O-])cc21.[Gd+3].[K+]"
  METRIC_NAME: "GI50"
  REPORTED_VALUE: "> 100000 nM"
- COMPOUND: "COc1cc(OC)cc(Oc2nc3cc(N)cc(N)c3nc2-c2ccccc2)c1"
  METRIC_NAME: "GI50"
  REPORTED_VALUE: "2210 nM"
- COMPOUND: "COc1cc(/C=C2\\CC3C4CCC5=CC(=O)CC[C@]5(C)C4CC[C@]3(C)C2=O)ccc1OCCCn1ccnc1 (some centres undefined)"
  METRIC_NAME: "GI50"
  REPORTED_VALUE: "2470 nM"
- COMPOUND: "Cn1cc(C2=C(Sc3ccccc3)C(=O)NC2=O)c2ccccc21"
  METRIC_NAME: "GI50"
  REPORTED_VALUE: "> 25000 nM"

###

In this section we review reported log10(TGI) values for a set of compounds.
# Test system: NCI/ADR-RES ovarian
# PROCEDURE_SUMMARY: NCI tumour cell line growth inhibition, 48 h
METRIC_NAME: log10(TGI) (log10 of the value in µM)

- COMPOUND: "CCCCC1=C(Br)C(=C(Br)Br)OC1=O"
  METRIC_NAME: "log10(TGI)"
  REPORTED_VALUE: 1.08
- COMPOUND: "COc1ccc2[nH]c3c(C)c4ccnc(NCCCN(C)CCCNc5ccc6nnn7c8ccccc8c(=O)c5c67)c4c(C)c3c2c1"
  METRIC_NAME: "log10(TGI)"
  REPORTED_VALUE: 0.43
- COMPOUND: "COC(=O)[C@@]12OC[C@]34[C@H]([C@@H](O)[C@@H]1O)[C@@]1(C)CC(=O)C(OC(C)=O)=C(C)[C@@H]1C[C@H]3OC(=O)[C@H](OC(=O)C=C(C)C)[C@@H]24"
  METRIC_NAME: "log10(TGI)"
  REPORTED_VALUE: 1.76
- COMPOUND: "COC(=O)c1c2c(c[n+]([O-])c1C)C(=O)C=C(NCc1ccccc1)C2=O"
  METRIC_NAME: "log10(TGI)"
  REPORTED_VALUE: -0.10
- COMPOUND: "COC1C(CO)OC(n2c3ccccc3c3c4c(c5c6ccccc6[nH]c5c32)C(=O)NC4=O)C(OC(=O)C(N)CCCCN)C1O (configuration not stated)"
  METRIC_NAME: "log10(TGI)"
  REPORTED_VALUE: 1.34
- COMPOUND: "CC(=O)OCC1OC(OC2=C(CC=C(C)C)C(=O)c3ccccc3C2=O)C(OC(C)=O)C(OC(C)=O)C1OC(C)=O (configuration not stated)"
  METRIC_NAME: "log10(TGI)"
  REPORTED_VALUE: 1.01
- COMPOUND: "Ic1ccc2[nH]cc(SSc3c[nH]c4ccc(I)cc34)c2c1"
  METRIC_NAME: "log10(TGI)"
  REPORTED_VALUE: 0.85
- COMPOUND: "O=C1/C(=C\\c2ccc(Br)cc2)CN(C(=O)c2ccccc2F)C/C1=C\\c1ccc(Br)cc1"
  METRIC_NAME: "log10(TGI)"
  REPORTED_VALUE: 1.25
- COMPOUND: "O=C1Nc2c(Cl)cc(Cl)cc2/C1=N/N=C/c1ccccc1O"
  METRIC_NAME: "log10(TGI)"
  REPORTED_VALUE: 1.71
- COMPOUND: "C/C(=N\\NC(=S)NCCNC(=S)N/N=C(\\C)c1ccccn1)c1ccccn1"
  METRIC_NAME: "log10(TGI)"
  REPORTED_VALUE: 0.78
- COMPOUND: "COc1cc(/C=C2\\CC3C4CCC5=CC(=O)CC[C@]5(C)C4CC[C@]3(C)C2=O)ccc1OCCCn1ccnc1 (some centres not stated)"
  METRIC_NAME: "log10(TGI)"
  REPORTED_VALUE: 1.27
- COMPOUND: "CC(C)(Cl)C(Cl)CC/C(CBr)=C(\\Cl)CCl (configuration not stated)"
  METRIC_NAME: "log10(TGI)"
  REPORTED_VALUE: 1.53
- COMPOUND: "O=c1[nH]c2cc(C(F)(F)F)ccc2nc1CBr"
  METRIC_NAME: "log10(TGI)"
  REPORTED_VALUE: 1.70
- COMPOUND: "C=C(C(=O)OC)[C@H]1CC/C(C)=C/CC[C@@](C)(O)C=CC[C@@]2(C)O[C@@H]2C1"
  METRIC_NAME: "log10(TGI)"
  REPORTED_VALUE: 1.90
- COMPOUND: "COC(O)C12OC3CO[Si](C(C)C)(C(C)C)O[Si](C(C)C)(C(C)C)OC3C1Oc1nc(=O)ccn12 (configuration not stated)"
  METRIC_NAME: "log10(TGI)"
  REPORTED_VALUE: 1.70

###

# Tested on: SW-620 colon
# PROCEDURE_SUMMARY: NCI tumour cell line growth inhibition, 48 h

- COMPOUND: "Cc1ccc(C(=O)Nc2ccc(S(=O)(=O)O)c3cc(S(=O)(=O)O)cc(S(=O)(=O)O)c23)cc1NC(=O)Nc1cc(C(=O)Nc2ccc(S(=O)(=O)O)c3cc(S(=O)(=O)O)cc(S(=O)(=O)O)c23)ccc1C"
  TGI: "> 87.5 µM"
- COMPOUND: "COc1ccc2[nH]c3c(C)c4ccnc(NCCCN(C)CCCNc5ccc6nnn7c8ccccc8c(=O)c5c67)c4c(C)c3c2c1"
  TGI: "1.16 µM"
- COMPOUND: "O=C(OC(CNc1c(C(=O)c2ccccc2)c(=O)n(Cc2ccccc2)c(=O)n1Cc1ccccc1)CN1CCOCC1)c1ccccc1 (stereo not drawn)"
  TGI: "> 100 µM"

###

# Test system: SK-MEL-2 melanoma
# PROCEDURE_SUMMARY: NCI tumour cell line growth inhibition, 48 h; in the data active = GI50 below about 0.43 µM; inactive = the rest
Outcome codes: 1.0 = active, 0.0 = inactive

- COMPOUND: "COc1cc(Nc2cc(C)nc(N3CCN(c4ccnc5cc(Cl)ccc45)CC3)n2)cc(OC)c1"
  ASSAYED_TARGET: "SK-MEL-2 melanoma"
  ANSWER_LABEL: 1.0
- COMPOUND: "CC(C)(C)c1[nH]nc2c1C(c1cc3ccccc3[nH]c1=O)Nc1cc(C(=O)Nc3ccc(Cl)cc3)ccc1N2 (centres undefined)"
  ASSAYED_TARGET: "SK-MEL-2 melanoma"
  ANSWER_LABEL: 0.0
- COMPOUND: "CCOC(=O)c1cc(NC(=O)c2cc(NC(=O)c3cc(NC(=O)c4c(-c5ccccc5)noc4C)cn3C)cn2C)cn1C"
  ASSAYED_TARGET: "SK-MEL-2 melanoma"
  ANSWER_LABEL: 0.0
- COMPOUND: "CCN1CCN(c2cc(C)nc(N(CCCNc3ccnc4cc(Cl)ccc34)Cc3cccs3)n2)CC1"
  ASSAYED_TARGET: "SK-MEL-2 melanoma"
  ANSWER_LABEL: 0.0
- COMPOUND: "c1cc(N2CCCC2)c2nc(-c3[nH]ncc3Nc3ncnc4[nH]ccc34)[nH]c2c1"
  ASSAYED_TARGET: "SK-MEL-2 melanoma"
  ANSWER_LABEL: 1.0
- COMPOUND: "CC(=O)OCC1OC(OC2=C(CC=C(C)C)C(=O)c3ccccc3C2=O)C(OC(C)=O)C(OC(C)=O)C1OC(C)=O (centres undefined)"
  ASSAYED_TARGET: "SK-MEL-2 melanoma"
  ANSWER_LABEL: 0.0
- COMPOUND: "Ic1ccc2[nH]cc(SSc3c[nH]c4ccc(I)cc34)c2c1"
  ASSAYED_TARGET: "SK-MEL-2 melanoma"
  ANSWER_LABEL: 0.0
- COMPOUND: "CC[C@]12C=CCN3CC[C@]4(C(=C(C(=O)OC)C1)Nc1cc(OC)c(OC(C)=O)cc14)[C@@H]32"
  ASSAYED_TARGET: "SK-MEL-2 melanoma"
  ANSWER_LABEL: 0.0
- COMPOUND: "Cn1cc(C2=C(Sc3ccccc3)C(=O)NC2=O)c2ccccc21"
  ASSAYED_TARGET: "SK-MEL-2 melanoma"
  ANSWER_LABEL: 0.0
